Data provenance is PubChem BioAssay.

Assay: viability loss with induced miR-34 in A549 – imaging, A549 dox-inducible miR-34, nuclei and caspase counts, primary screen (AID 1347080); note: test concentration not given here
Conditions: A549 miR-34 inducible, Hoechst nuclei count, 48 h; measured here: total cells without miR-34 induction
# cell count values compiled below
Lab note: record the figure alone, no unit after it.

[[record]]
compound = "CCN1CC(C)n2c(c(O)c3c(=O)n(Cc4ccc(F)c(Cl)c4)nc(C(=O)NC)c32)C1=O (centres undefined)"
experimental_result = 7150

[[record]]
compound = "CCCCCOC(=O)Nc1nc(=O)n(C2OC(C)C(O)C2O)cc1F (centres undefined)"
experimental_result = 7710

[[record]]
compound = "COc1ccc(-c2cc(=O)c3c(O)cc(O)cc3o2)cc1"
experimental_result = 9550


Task: Field request: cell count | item: CC(CCC(=O)O)C1CC[C@H]2[C@@H]3CC[C@@H]4CC(O)CC[C@]4(C)[C@H]3CC[C@]12C (some centres undefined)
Output: 8650

Task: Consider the compound O=c1cc(-c2ccc(O)cc2)oc2c(C3O[C@H](CO)[C@@H](O)[C@H](O)[C@H]3O)c(O)cc(O)c12 (some centres undefined) and give its measured cell count.
Output: 9780

Task: Reported cell count, compound NCCCCCCCCCCN : ____
Output: 10900

Task: Would you mind telling me what cell count value was observed for CC(C)Oc1ccc(C(=O)NC(CNC(=O)CN(C)C)Cc2ccc(-c3cn4cccc(C(C)O)c4n3)cc2)cc1Cl (centres undefined) ?
Output: 1590

Task: I have this compound here, O=C(O)c1ccc2ccccc2n1 , and I need its recorded cell count.
Output: 9000

Task: Looking for the measured cell count of CC(C)(C)CC(C)(C)c1ccc(OCOCCOCCO)c(Cc2cc(C(C)(C)CC(C)(C)C)cc(Cc3cc(C(C)(C)CC(C)(C)C)ccc3OCOCCOCCO)c2OCOCCOCCO)c1 , can you help?
Output: 9040

Task: # lookup: cell count of CNC(=O)c1ccccc1Sc1ccc2c(C=Cc3ccccn3)n[nH]c2c1
Output: 2440

Task: What value of measured cell count is listed for CC(C)C[C@H](NC(=O)[C@H](O)[C@H](N)Cc1ccccc1)C(=O)O ?
Output: 9920

Task: I am curious: what cell count value has been reported for O=C(CCc1ccc(O)cc1)c1c(O)cc(O)cc1OC1OC(CO)C(O)C(O)C1O (centres undefined) ?
Output: 10400
